Tyrosine-protein kinase JAK2 (Homo sapiens, UniProt O60674) IC50 data
Sequence (O60674 whole entry): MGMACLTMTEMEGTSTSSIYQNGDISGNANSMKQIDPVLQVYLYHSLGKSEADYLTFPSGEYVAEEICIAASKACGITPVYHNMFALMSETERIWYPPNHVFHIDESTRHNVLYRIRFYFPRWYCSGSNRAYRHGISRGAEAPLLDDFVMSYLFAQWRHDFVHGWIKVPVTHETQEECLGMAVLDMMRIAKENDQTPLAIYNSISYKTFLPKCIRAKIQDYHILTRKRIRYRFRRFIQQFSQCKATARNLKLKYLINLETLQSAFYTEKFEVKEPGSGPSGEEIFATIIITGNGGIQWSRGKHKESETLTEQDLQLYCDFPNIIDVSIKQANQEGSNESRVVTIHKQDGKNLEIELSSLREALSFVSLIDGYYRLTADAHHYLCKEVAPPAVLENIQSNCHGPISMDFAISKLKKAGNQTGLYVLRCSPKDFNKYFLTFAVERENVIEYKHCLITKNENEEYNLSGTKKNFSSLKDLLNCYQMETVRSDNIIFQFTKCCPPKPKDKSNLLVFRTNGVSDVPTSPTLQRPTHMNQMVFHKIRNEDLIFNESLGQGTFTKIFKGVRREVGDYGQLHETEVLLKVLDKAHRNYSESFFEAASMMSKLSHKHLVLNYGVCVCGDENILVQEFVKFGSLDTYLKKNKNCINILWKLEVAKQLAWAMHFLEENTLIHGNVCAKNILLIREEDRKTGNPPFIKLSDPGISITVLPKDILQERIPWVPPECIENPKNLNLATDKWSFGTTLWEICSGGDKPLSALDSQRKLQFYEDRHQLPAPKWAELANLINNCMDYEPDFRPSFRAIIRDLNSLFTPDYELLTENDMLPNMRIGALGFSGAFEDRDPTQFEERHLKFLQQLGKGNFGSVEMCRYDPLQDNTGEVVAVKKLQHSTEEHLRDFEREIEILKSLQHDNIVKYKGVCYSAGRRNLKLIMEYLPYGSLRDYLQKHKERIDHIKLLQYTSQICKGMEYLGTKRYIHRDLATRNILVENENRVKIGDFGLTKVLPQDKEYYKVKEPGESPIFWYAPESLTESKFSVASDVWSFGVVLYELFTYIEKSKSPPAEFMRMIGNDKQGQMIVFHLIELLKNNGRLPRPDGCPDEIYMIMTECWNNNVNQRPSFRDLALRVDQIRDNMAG
Numbers only here, please. The scale is nM.

Consider the worked cases shown below.
NS(=O)(=O)c1cccc(Nc2ccnc(Nc3ccc(N4CCOCC4)cc3)n2)c1 :: 129
Cc1cccc(Nc2ccnc(Nc3ccc(N4CCN(C)CC4)cc3)n2)c1 :: 140
Cc1cccc(Nc2ccnc(Nc3ccc(N4CCN(C)CC4)c(C)c3)n2)c1 :: 50

Here is the next item to consider.
# lookup: "Cc1cc(Nc2nccc(Nc3cccc(S(N)(=O)=O)c3)n2)ccc1N1CCN(C)CC1" on Tyrosine-protein kinase JAK2 (Homo sapiens, UniProt O60674), IC50 = 126

###

experiment: Cytotoxicity against human A549 cells after 72 hrs by MTT assay; format: toxicity, cell-based
measurementKind: EC50 at 72 h (µM)
Numbers only here, please. The scale is µM.

Consider the worked cases shown below.
NS(=O)(=O)c1cccc(Nc2ccnc(Nc3ccc(N4CCOCC4)cc3)n2)c1 :: 9.4
Cc1cccc(Nc2ccnc(Nc3ccc(N4CCN(C)CC4)cc3)n2)c1 :: 7.1
Cc1cccc(Nc2ccnc(Nc3ccc(N4CCN(C)CC4)c(C)c3)n2)c1 :: 3.5

Here is the next item to consider.
According to the records, this compound "Cc1cc(Nc2nccc(Nc3cccc(S(N)(=O)=O)c3)n2)ccc1N1CCN(C)CC1" displays EC50 at 72 h of 4.2

###

assay: Cytotoxicity against African green monkey Vero cells at 10 uM after 4 days by fluorescence assay; format: toxicity, cell-based; conditions: chlorocebus sabaeus, 96 h
Response field label takes Criterion met when Activity is strictly below 90% and Criterion not met in all other cases.

Exercise: Just wondering, is Activity of "Cc1cc(Nc2ncc(C#N)c(Nc3ccccc3C(N)=O)n2)ccc1N1CCN(C)CC1" below 90%?
Key: Criterion not met

Exercise: Just wondering, is Activity of "Cc1cccc(Nc2ccnc(Nc3ccc(N4CCN(C)CC4)cc3)n2)c1" below 90%?
Key: Criterion not met

Exercise: Just wondering, is Activity of "Cc1cc(Nc2nc(Nc3cccc(S(N)(=O)=O)c3)ncc2C#N)ccc1N1CCN(C)CC1" below 90%?
Key: Criterion met

Exercise: Just wondering, is Activity of "NC(=O)c1ccccc1Nc1ccnc(Nc2ccc(N3CCOCC3)cc2)n1" below 90%?
Key: Criterion met

Exercise: Just wondering, is Activity of "Cc1cc(Nc2ncc(C#N)c(Nc3cccc(S(N)(=O)=O)c3)n2)ccc1N1CCN(C)CC1" below 90%?
Key: Criterion not met

Exercise: Just wondering, is Activity of "Cc1cccc(Nc2ccnc(Nc3ccc(N4CCOCC4)cc3)n2)c1" below 90%?
Key: Criterion met

Exercise: Just wondering, is Activity of "NS(=O)(=O)c1cccc(Nc2ccnc(Nc3ccc(N4CCOCC4)cc3)n2)c1" below 90%?
Key: Criterion met

Exercise: Just wondering, is Activity of "Cc1cccc(Nc2ccnc(Nc3ccc(N4CCN(C)CC4)c(C)c3)n2)c1" below 90%?
Key: Criterion not met

###

biological target: Epidermal growth factor receptor (Homo sapiens)
Sequence (P00533 whole entry): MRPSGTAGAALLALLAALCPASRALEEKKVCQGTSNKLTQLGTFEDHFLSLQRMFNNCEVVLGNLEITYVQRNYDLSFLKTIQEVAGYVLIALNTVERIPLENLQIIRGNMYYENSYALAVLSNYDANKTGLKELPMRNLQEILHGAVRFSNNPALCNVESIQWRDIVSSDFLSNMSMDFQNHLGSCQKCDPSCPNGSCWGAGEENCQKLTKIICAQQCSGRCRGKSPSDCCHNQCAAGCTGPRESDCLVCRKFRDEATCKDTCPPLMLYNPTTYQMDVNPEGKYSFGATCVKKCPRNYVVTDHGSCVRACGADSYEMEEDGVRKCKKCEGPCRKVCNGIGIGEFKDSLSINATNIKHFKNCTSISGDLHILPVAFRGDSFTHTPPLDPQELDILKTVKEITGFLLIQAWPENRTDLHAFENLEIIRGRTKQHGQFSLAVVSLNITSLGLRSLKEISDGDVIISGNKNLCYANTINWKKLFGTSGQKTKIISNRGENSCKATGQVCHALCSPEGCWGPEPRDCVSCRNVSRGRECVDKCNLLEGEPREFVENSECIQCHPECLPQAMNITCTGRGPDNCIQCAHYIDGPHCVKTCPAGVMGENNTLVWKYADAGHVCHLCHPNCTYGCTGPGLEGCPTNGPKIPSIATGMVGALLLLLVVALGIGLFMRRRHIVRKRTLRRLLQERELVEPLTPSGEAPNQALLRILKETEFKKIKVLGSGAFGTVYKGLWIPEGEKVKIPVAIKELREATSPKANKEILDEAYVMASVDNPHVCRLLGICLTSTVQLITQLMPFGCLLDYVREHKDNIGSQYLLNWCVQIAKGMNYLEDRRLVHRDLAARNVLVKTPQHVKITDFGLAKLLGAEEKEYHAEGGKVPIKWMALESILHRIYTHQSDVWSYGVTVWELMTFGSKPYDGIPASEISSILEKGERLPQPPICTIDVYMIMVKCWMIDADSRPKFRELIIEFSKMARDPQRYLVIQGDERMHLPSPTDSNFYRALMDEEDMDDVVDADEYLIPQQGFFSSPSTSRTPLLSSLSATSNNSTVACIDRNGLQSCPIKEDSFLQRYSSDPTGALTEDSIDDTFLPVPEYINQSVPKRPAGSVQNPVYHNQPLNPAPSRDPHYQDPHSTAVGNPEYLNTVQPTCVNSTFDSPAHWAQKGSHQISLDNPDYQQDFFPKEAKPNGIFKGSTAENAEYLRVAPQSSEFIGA
measurementKind: IC50

Cc1cc(Nc2ncc(C#N)c(Nc3cccc(S(=O)(=O)NC(C)(C)C)c3)n2)ccc1N1CCN(C)CC1 :: > 150 µM
Cc1cc(Nc2nccc(Nc3cccc(S(N)(=O)=O)c3)n2)ccc1N1CCN(C)CC1 :: > 150 µM
Cc1cccc(Nc2ccnc(Nc3ccc(N4CCN(C)CC4)c(C)c3)n2)c1 :: > 150 µM
NS(=O)(=O)c1cccc(Nc2ccnc(Nc3ccc(N4CCOCC4)cc3)n2)c1 :: > 100 µM

According to the records, this compound "Cc1cccc(Nc2ccnc(Nc3ccc(N4CCN(C)CC4)cc3)n2)c1" displays IC50 of 11 µM
